Biological target: Prostaglandin G/H synthase 1 (Homo sapiens)
Sequence (P23219 whole entry): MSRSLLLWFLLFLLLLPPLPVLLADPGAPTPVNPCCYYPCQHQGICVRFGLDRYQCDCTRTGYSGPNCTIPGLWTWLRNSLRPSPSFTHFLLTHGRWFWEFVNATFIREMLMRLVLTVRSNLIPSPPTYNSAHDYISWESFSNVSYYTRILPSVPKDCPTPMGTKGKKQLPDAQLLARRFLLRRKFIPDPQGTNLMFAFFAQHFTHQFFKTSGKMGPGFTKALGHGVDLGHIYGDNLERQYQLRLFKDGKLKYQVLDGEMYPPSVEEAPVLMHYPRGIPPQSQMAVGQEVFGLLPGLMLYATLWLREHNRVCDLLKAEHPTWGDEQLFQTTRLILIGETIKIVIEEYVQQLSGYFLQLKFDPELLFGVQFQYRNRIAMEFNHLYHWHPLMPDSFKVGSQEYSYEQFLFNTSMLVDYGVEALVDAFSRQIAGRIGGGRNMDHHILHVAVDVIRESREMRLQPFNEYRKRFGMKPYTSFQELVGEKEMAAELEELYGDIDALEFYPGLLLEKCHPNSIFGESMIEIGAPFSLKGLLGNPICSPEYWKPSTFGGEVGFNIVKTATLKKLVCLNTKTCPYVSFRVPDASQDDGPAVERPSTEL
Assay: In vitro average percent Inhibition of Prostaglandin G/H synthase 1 (COX-1) at a concentration of 100 uM in human whole blood by human whole blood assay
Assay type: tissue-based
PROPERTY MEASURED: inhibition (%)

Study these solved cases before continuing.
>>> result_value("CS(=O)(=O)c1ccc(-c2cc3c(cc2C(=O)c2ccccc2)OCO3)cc1")
75
>>> result_value("CS(=O)(=O)c1ccc(-c2cc3c(cc2Cc2cccnc2)OCO3)cc1")
35

1. Cc1ccc(Cc2cc3c(cc2-c2ccc(S(C)(=O)=O)cc2)OCO3)cc1
2. CS(=O)(=O)c1ccc(C2=C(c3ccccc3)C(=O)OC2)cc1
Input line: Kindly identify which of 1 and 2 has the larger recorded inhibition value. Answer by quoting the chosen item's label.
Output line: 2

This collection of values is drawn from ChEMBL document CHEMBL1145927.
